tested on: MS2 coat protein; assay: apparent KD of MS2 coat protein; designed switch direction (-1 OFF switch, 1 ON switch): -1; higher = weaker reporter binding; details: Eterna round: R95; input ligand: microRNA oligo, concentration not stated
Can you tell me apparent KD of MS2 coat protein for the items I'm about to list?
Returns: string containing the number followed by the unit.

Here are 10 sequences together with their reported answers.
- chain_sequence: "UAUCGGCGGACCCAGGCUUUUUGCUCGUCUUAUGCUAUGACAUGAGGAUCACCCAUGUGGUGGUGGUCCGUUGUAGU [JL ViennaUCT Bitein mod 11] (puzzle: Sensor v3, turn-off variant 2)"
  apparent KD of MS2 coat protein: "11.3 nM"
- chain_sequence: "GAUAGAGAGCAGGAUAUCAUAGAAAUGUAUGAAUGAGAAGGGCUCACAUGAGGAUCACCCAUGUGGUCCUAGAU [JL Dibiri mod 19] (puzzle: Exclusion 6)"
  apparent KD of MS2 coat protein: "22.4 nM"
- chain_sequence: "GGAUCGAAAGUGAGGAUAUACCACUGGAUACAGUGGUAGAAGGCACAUGAGGAUCACCCAUGUCUCUACGAUCC [Fiskers BMX 4 - 42] (puzzle: Brourd's mod of Exclusion 4)"
  apparent KD of MS2 coat protein: "13 nM"
- chain_sequence: "AAUGUCUGAGGAUAUCGAUUAGUGUACAUGAGGAUCACCCAUGUUUUUAUUUGUAUAUUACGAGAAGGCAGUGGAA [JR_E5_Sub087] (puzzle: Exclusion 5)"
  apparent KD of MS2 coat protein: "19.1 nM"
- chain_sequence: "AAGUCCAGAGGAUAUCAGACGCGGCACAUGAGGAUCACCCAUGUAUUCCCGUCUGCCGACUGAGAAGGUUGGAAAG [Vesoarusqu] (puzzle: Exclusion 5)"
  apparent KD of MS2 coat protein: "11.1 nM"
- chain_sequence: "GGUCCACGAGGAUAUCGAUUAUAGUACAUGAGGAUCACCCAUGUUGUCCAGGUUUCGAUUCGAGAAGGCGUGGGUU [LRO-Ex5-02] (puzzle: Exclusion 5)"
  apparent KD of MS2 coat protein: "51.8 nM"
- chain_sequence: "GUUUGACAUGAGGAUCACCCAUGUGAGGAUAUCGGCUGGUACGUGUUGGCUGGCAUCUCGAGAAGGCACAUAGG [Exclusion 1 V58] (puzzle: Exclusion 1)"
  apparent KD of MS2 coat protein: "109 nM"
- chain_sequence: "AGUUGGCGAGGAUAUACAUGAGGAUCACCCAUGUGAGAGAAAAAAGUGAGGAAGAAAAGUAGAAGGCGCUGACA [salish99_ex3_r3_038] (puzzle: Exclusion 3)"
  apparent KD of MS2 coat protein: "48.3 nM"
- chain_sequence: "UGUGCGUAUGUGAGGAUAUGCUGGUCCUUGGAUCGGCAGAAGGCACAUGAGGAUCACCCAUGUGGUGUCGUACA [salish99_Bmod_ex4_086] (puzzle: Brourd's mod of Exclusion 4)"
  apparent KD of MS2 coat protein: "204 nM"
- chain_sequence: "AAUAACAAGUAAGGUCCUAACAUGAGGAUCACCCAUGUGCUCGUCUUAUAAAGUACUAUCACGAAAGUGAUAGUACA [Sensor 3, v1 - 52] (puzzle: Sensor v3, turn-off variant 1)"
  apparent KD of MS2 coat protein: "414 nM"

Query block: Please look up its apparent KD of MS2 coat protein: GGAAGACAUGAGGAUCACCCAUGUAAGGAUAUCGAAGGUAAGAGAGGAAAGAAGGGAACGAGAAGGUACAGGUG [JR_Exclu1_Sub095] (puzzle: Exclusion 1)
Result block: 88.9 nM

---

tested on: K4 kissing-loop RNA reporter; experiment: apparent KD of K4 kissing-loop reporter; higher = weaker reporter binding; details: Eterna round: R107; input ligand: FMN 200 uM;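 further: bound reporter read as fluorescence of individual clusters on recovered sequencing chips by microscopy, with normalized cluster intensities fitted with a binding model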
Response key: 1 (yes) means apparent KD of K4 kissing-loop reporter >= 300 nM; 0 (no) means apparent KD of K4 kissing-loop reporter < 300 nM.

- chain_sequence: "CACUCGGUAUCAGAUACCAGACUAACGAUACCGAGUGUAUCGGGUAGUGAUGUUACCAUAGUCCCUUGGCAGCUGAUAUACCAUA [Theo B SS t9]"
  class_name: "0 (no)"

Query block: # check: apparent KD of K4 kissing-loop reporter of AGACUACCUACACUGUCAAUAGACAGUGACUAGGAUAUGCUGAUAAGCAGAAGGAGUGAUGUUCCUGGUAGUCAAAUAAAAUAAU [FmnAX 12 #SwitchBubble #StaticStem #K4Early] is greater than or equal to 300 nM
Result block: 1 (yes)

Query block: Check this sequence for apparent KD of K4 kissing-loop reporter at or above 300 nM: GGAUAGGACAGAGGAUAUGGUAGUGAUGUUACCAAACUGGUUACUAAUGUCAGAAAACUGGCAAAUCCAGAAGGCUGUCCUAUCG [KL-XFMN-B13]
Result block: 0 (no)

Query block: Could you tell me if the measured apparent KD of K4 kissing-loop reporter of AGUGGACGUGUCCGGAGUGAUGUUCCGGAUACCAGACACGAAAGUGUCCCUUGGCAGCCGGAGUAAAGUUCCGGCGUUCACUAAA [#26 K4 Theophylline A Exclusion] reaches 300 nM or more?
Result block: 0 (no)

Query block: Is apparent KD of K4 kissing-loop reporter for AGGGUUUAACACGAUACCAGCCUGGAGGCCAGUGAUGUUGGCCGAUUUGAACAGAAUUAAGGCCCUUGGCAGCGUCUUUAAAACC [Biarat] at or above 300 nM?
Result block: 0 (no)

Query block: Given the entry UGUCAUUGGUCGGCCGCCACUUCAUAAAGAGUGAUGUUCUGAAAGACGGAUCGAAAGAUCUGUCGAAGGACCGGGACCGAUGACU [FiskerMod 1 - Jieux - Same State - Tryptophan B] , answer whether its apparent KD of K4 kissing-loop reporter meets or surpasses 300 nM.
Result block: 1 (yes)

---

system: MS2 coat protein; test: apparent KD of MS2 coat protein; higher = weaker reporter binding; settings: Eterna round: R107; input ligand: arginine 13.2 mM
Binary call on apparent KD of MS2 coat protein: True from 20 nM upward, False beneath that.

- chain_sequence: "GCAUUAUUAUUAGAUACCAGUGUCGCAGGCGACAUGAGGAUCACCCAUGUAAAGUUACUCCACCCUUGGCAGCUAGUUCGACUAC [theeternabot_sameState_MS2_Theo_B_21]"
  class_name: "True"

Proceed to the following item.
Query block: In plain terms: is recorded apparent KD of MS2 coat protein at least 20 nM for GGCAAGCGAGACAUGAGGAUCACCCAUGUUCGAGGACCGGUACGGCCGCCACUCGGUGGACUCAUGGUAAAGCCGGUGAGCCAAA [AK 1 SS Trypt (A)] ?
Result block: True

---

test system: MS2 coat protein; assay: apparent KD of MS2 coat protein; higher = weaker reporter binding; conditions: Eterna round: R107; input ligand: theophylline 2 mM
property: apparent KD of MS2 coat protein (nM)
Answers are plain numbers, in nM.

As a guide, the following entries are already answered.
- chain_sequence: "UAGCGAUAAUCUGAUACCAGACGUGUGCUCUCCUCAGACAUGAGGAUCACCCAUGUAUGCGUCCCUUGGCAGCAGAGUGAGGAGA [Theo B Ex t5]"
  apparent KD of MS2 coat protein, nM: 115
- chain_sequence: "GGUUACUCUACGGCCGCCACUGAUUAUUUAUAAUCCUGUACAUAAACAUGAGGAUCACCCAUGUACAGGACCGGGUAGUGUAACC [Tryptophan B 11]"
  apparent KD of MS2 coat protein, nM: 33.5

Attention now shifts to the item below.
Query block: I'd like to know its apparent KD of MS2 coat protein. The sequence in question is ACGUAAUGCAGAAGGAGCGUCAUUCUCUUACAUGAGGAUCACCCAUGUUACAUGGUUUUAUGACAGGUAGGUCGCUGAAGUACGA [JR_SSArginiB_Sub004]
Result block: 138

---

test system: MS2 coat protein; assay: apparent KD of MS2 coat protein; designed switch direction (-1 OFF switch, 1 ON switch): -1; higher = weaker reporter binding; settings: input ligand: none
property: apparent KD of MS2 coat protein (nM)
One number for each entry, in nM.

- chain_sequence: "GUCAGCUCGUCAGGAUAUACAUGCGUGCUUCGGCACGUAUGAUAGAUCACAUGAGGAUCACCCAUGUAGAAGGGACGAGCUGAC [ENG2/4-B1] (Eterna round: R96, puzzle: Exclusion NG 2)"
  numeric_value: 12.5

Each sequence below has a recorded value; state its apparent KD of MS2 coat protein.
1. UUUUGGCAGGCUAUUAUUAACAUGAGGAUCACCCAUGUGCAUCCAAAAUUACUUUUAGAUCUUGCUCGUCUUAUAUA [JR_STOV1_Sub086] (Eterna round: R97, puzzle: Sensor, turn-off variant 1)
2. UUAAUUAAUUGACUGCAAGAUCAACAUGAGGAUCACCCAUGUGAGGAUAUCAGCUCGUGUAGAGCUGAGAAGGCACAAGCAGUC [ExNG3/16-A3] (Eterna round: R96, puzzle: Exclusion NG 3)
3. UUUUUUUUGCGAGGAUAUGCAUUUAGUUAGUUAGCAGAAGGCGCGUUUCUAUACUCCUCUUCUUACAUGAGGAUCACCCAUGUU [JR_ExcNG1_Sub033] (Eterna round: R96, puzzle: Exclusion NG 1)
4. GGAUCGAAUGUCAGGAUAUGCUGGUCCUUGGAUCAGCAGAAGGGACAUGAGGAUCACCCAUGUCCUCUCGGUCC [Eli bmx4 4.52] (Eterna round: R97, puzzle: Brourd's mod of Exclusion 4)

Result block:
1. 684
2. 21.8
3. 35.1
4. 26.5
